experiment: Inhibition of D-DWEYS binding to mouse anti-dsDNA monoclonal antibody R4A pretreated for 1 hr followed by D-DWEYS peptide addition measured after 1 hr by ELISA
assayConditions: read-out: IC50
attributeMeasured: IC50 (µM)

Some compounds with known IC50 results, for comparison:
INSERT INTO assay_data (compound, attributemeasured, quantitativereadout) VALUES
  ('CC(C)(C)NC[C@@H]1CC2CCCCC2CN1C[C@@H](O)[C@H](Cc1ccccc1)NC(=O)c1ccc2ccccc2n1 (some centres not stated)', 'IC50', 5.8),
  ('CC(C)(C)NC[C@@H]1CC2CCCCC2CN1C[C@@H](O)[C@H](Cc1ccccc1)NC(=O)[C@H](CCN)NC(=O)c1nc2ccccc2cc1O (some centres not stated)', 'IC50', 19.7),
  ('CC(C)(C)NC[C@@H]1CC2CCCCC2CN1C[C@@H](O)[C@H](Cc1ccccc1)NC[C@H](CCN)NC(=O)c1ccccn1 (some centres not stated)', 'IC50', 12.5),
  ('CC(C)(C)NC[C@@H]1CC2CCCCC2CN1C[C@@H](O)[C@H](Cc1ccccc1)NC[C@H](CCN)NCC1CCc2ccccc2N1 (some centres not stated)', 'IC50', 6.9),
  ('CC(C)(C)NC(=O)[C@@H]1CC2CCCCC2CN1C[C@@H](O)[C@H](Cc1ccccc1)NC(=O)c1ccc2ccccc2n1 (some centres not stated)', 'IC50', 88.7);

(a) CC(C)(C)NC[C@@H]1CC2CCCCC2CN1C[C@@H](O)[C@H](Cc1ccccc1)NC[C@H](CCN)NC(=O)C1CCCCN1 (some centres not stated)
(b) CC(C)(C)NC[C@@H]1CC2CCCCC2CN1C[C@@H](O)[C@H](Cc1ccccc1)NC[C@H](CCN)NCC1Nc2ccccc2CC1O (some centres not stated)
Returns: the label, a or b , whose recorded IC50 is the lower number. Choose, then provide that item's label.
b
(b: 4.5 µM, a: 10 µM)

(a) CC(C)(C)NC[C@@H]1CC2CCCCC2CN1C[C@@H](O)[C@H](Cc1ccccc1)NC[C@@H](N)CCN (some centres not stated)
(b) CC(C)(C)NC[C@@H]1CC2CCCCC2CN1C[C@@H](O)[C@H](Cc1ccccc1)NC[C@H](CCN)NC(=O)c1ccc2ccccc2c1 (some centres not stated)
Would you let me know which has the greater IC50 value, a or b ? Choose, then provide that item's label.
a
(a: 27.3 µM, b: 3.7 µM)
